Origin of the recorded values: patent US9023852B2

Give measured pEC50 for each item. Keep answers brief.
# Tested on: M17—3TAU(P301L) cells
# assay protocol: Neuroblastoma tauopathy model: inhibition of TAU-induced cytotoxicity (LDH)
# Format: cell-based
# experimental setup: Homo sapiens, 168 h; inhibition of TAU-induced toxicity (LDH), 7 days differentiation with retinoic acid
Answers are plain numbers, as −log10 of the molar value.

Answered cases to consult:
- structure as smiles: "Cc1ccc(-c2nsc(N3CCN(Cc4ccc5c(c4)OCO5)CC3)n2)cc1"
  experimental system: "M17—3TAU(P301L) cells"
  pEC50: 6.23
- structure as smiles: "Fc1ccc(-c2nsc(N3CCN(CCc4ccc(C(F)(F)F)cc4)CC3)n2)cc1F"
  experimental system: "M17—3TAU(P301L) cells"
  pEC50: 7.22
- structure as smiles: "Cc1ncc(-c2nsc(N3CCN(CCc4ccccc4)CC3)n2)cn1"
  experimental system: "M17—3TAU(P301L) cells"
  pEC50: 7.88
- structure as smiles: "Fc1ccc(CCN2CCN(c3nc(-c4ccc(Cl)cc4)ns3)CC2)cc1F"
  experimental system: "M17—3TAU(P301L) cells"
  pEC50: 7.42
- structure as smiles: "Cc1ccc(-c2nsc(N3CCN(CCc4ccccc4)CC3)n2)cn1"
  experimental system: "M17—3TAU(P301L) cells"
  pEC50: 8.02

# per-item lookup of pEC50; items listed below
1. Cc1ccccc1CN1CCN(c2nc(-c3ccc(F)c(F)c3)ns2)CC1
2. COc1cc(CCN2CCN(c3nc(-c4cnnc(C)c4)ns3)CC2)ccn1
3. Clc1ccc(CCN2CCN(c3nc(-c4cc(Cl)ccn4)ns3)CC2)cc1
4. COc1cccc(CCN2CCN(c3nc(-c4cccc(OC)c4)ns3)CC2)c1
5. COc1ccc(CCN2CCN(c3nc(-c4ccccc4OC)ns3)CC2)cc1

1. 7.14
2. 7.71
3. 7.02
4. 7.67
5. 9.15

# per-item lookup of pEC50; items listed below
1. COc1cc(CCN2CCN(c3nc(-c4cccc(C#N)c4)ns3)CC2)ccn1
2. COc1cccc(CCN2CCN(c3nc(-c4ccc(F)cc4)ns3)CC2)c1
3. Fc1ccc(CCN2CCN(c3nc(-c4cc(Cl)ccn4)ns3)CC2)cc1F
4. COc1cccc(CCN2CCN(c3nc(-c4ccc(Cl)cc4F)ns3)CC2)c1
5. FC(F)(F)c1ccc(CCN2CCN(c3nc(-c4cccc(Cl)c4)ns3)CC2)cc1
6. Cc1ccccc1CN1CCN(c2nc(-c3ccc(C#N)cc3)ns2)CC1
7. Clc1cccc(-c2nsc(N3CCN(CCC4CCCCC4)CC3)n2)c1

1: 8.24; 2: 8.85; 3: 7.54; 4: 8.38; 5: 6.34; 6: 6.74; 7: 8.48

Quick check: pEC50 of `Cc1ccc(-c2nsc(N3CCN(CCc4ccc(F)c(F)c4)CC3)n2)cn1` ?
7.17

* * *

# System: M17—3TAU(P301L) cells
# assay protocol: Neuroblastoma tauopathy model: inhibition of TAU-induced cytotoxicity (LDH)
# Assay type: cell-based
# experimental setup: Homo sapiens, 168 h; inhibition of TAU-induced toxicity (LDH), 7 days differentiation with retinoic acid
pEC50: −log10 of the molar value.
Please note: Satisfied applies when pEC50 is 7 or greater, and Not satisfied applies otherwise.

- structure as smiles: "COc1cc(CCN2CCN(c3nc(-c4cccc(F)c4)ns3)CC2)ccn1"
  class assignment: "Satisfied"
- structure as smiles: "Clc1ccc(-c2nsc(N3CCN(CCC4CCOCC4)CC3)n2)cc1"
  class assignment: "Satisfied"
- structure as smiles: "CCOc1ccc(CCN2CCN(c3nc(-c4ccc(Cl)cc4)ns3)CC2)cc1"
  class assignment: "Not satisfied"

Would you kindly look at the next entry?
Tell me whether pEC50 is at least 7 here: `Cc1ccc(-c2nsc(N3CCN(Cc4ccccc4C)CC3)n2)cc1`
Not satisfied

* * *

# System: M17—3TAU(P301L) cells
# assay protocol: Neuroblastoma tauopathy model: inhibition of TAU-induced cytotoxicity (LDH)
# Assay type: cell-based
# experimental setup: Homo sapiens, 168 h; inhibition of TAU-induced toxicity (LDH), 7 days differentiation with retinoic acid
quantity: pEC50
Numbers only, as −log10 of the molar value.

- structure as smiles: "Cc1ccc(-c2nsc(N3CCN(CCc4ccccc4)CC3)n2)cc1"
  experimental system: "M17—3TAU(P301L) cells"
  pEC50: 6.94

# per-item lookup of pEC50; items listed below
1. COc1cc(CCN2CCN(c3nc(-c4cnc(C)nc4)ns3)CC2)ccn1
2. Cc1ncc(-c2nsc(N3CCN(CCc4ccc(Cl)cc4)CC3)n2)cn1

1. 6.82
2. 6.89

* * *

# System: M17—3TAU(P301L) cells
# assay protocol: Neuroblastoma tauopathy model: inhibition of TAU-induced cytotoxicity (LDH)
# Format: cell-based
# experimental setup: Homo sapiens, 168 h; inhibition of TAU-induced toxicity (LDH), 7 days differentiation with retinoic acid
quantity: EC50 (nM)
One number for each entry, in nM.

Answered cases to consult:
- structure as smiles: "COc1ccc(CCN2CCN(c3nc(-c4cccc(OC)c4)ns3)CC2)cc1"
  experimental system: "M17—3TAU(P301L) cells"
  endpoint value: 367
- structure as smiles: "Clc1ccc(CCN2CCN(c3nc(-c4ccc(Cl)cn4)ns3)CC2)cc1"
  experimental system: "M17—3TAU(P301L) cells"
  endpoint value: 458
- structure as smiles: "COc1cccc(CCN2CCN(c3nc(-c4ccncc4)ns3)CC2)c1"
  experimental system: "M17—3TAU(P301L) cells"
  endpoint value: 174
- structure as smiles: "COc1ccc(CCN2CCN(c3nc(-c4cnnc(C)c4)ns3)CC2)cc1"
  experimental system: "M17—3TAU(P301L) cells"
  endpoint value: 1

Let's switch to this molecule now.
Quick check: EC50 of `Fc1cccc(-c2nsc(N3CCN(CCc4ccc(F)c(F)c4)CC3)n2)c1` ?
11.9
